The following molecules are shown together with reported inhibition values.
- experimental.target: Beta-lactamase L1 (Stenotrophomonas maltophilia) (UniProt P52700)
- Sequence (P52700 34-290 limits assumed): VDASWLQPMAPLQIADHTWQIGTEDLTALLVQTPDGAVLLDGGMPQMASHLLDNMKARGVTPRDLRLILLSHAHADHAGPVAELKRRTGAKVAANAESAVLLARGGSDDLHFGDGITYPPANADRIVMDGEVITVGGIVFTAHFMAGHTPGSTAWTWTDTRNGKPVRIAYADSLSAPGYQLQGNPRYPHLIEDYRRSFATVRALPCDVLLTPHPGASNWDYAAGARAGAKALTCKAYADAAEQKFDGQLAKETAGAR
- measurement.notes: Inhibition of Stenotrophomonas maltophilia L1 metallo beta lactamase at 200 uM
The figure you give is taken to be in %; do not add the unit.

In [3]: df
Out[3]:
                                   molecule  value_measured
0  O=C(COc1ccccc1)NC(CCS)C(=O)N[C@H](Cc1ccccc1)C(=O)O (stereo partly drawn)              61
1  O=C(NC(CCS)C(=O)N[C@H](Cc1ccccc1)C(=O)O)c1ccc2[nH]ccc2c1 (stereo partly drawn)              61
2  O=C(NC(CCS)C(=O)N[C@H](Cc1ccccc1)C(=O)O)c1cc2cccc([N+](=O)[O-])c2[nH]1 (stereo partly drawn)              81

For the next question, use this molecule.
Problem: Query (molecule): O=C(Cc1ccccc1)NC(CCS)C(=O)N[C@H](Cc1ccccc1)C(=O)O (stereo partly drawn) ; field requested: inhibition
Result: 61

---

The following compounds are shown together with reported inhibition values.
- experimental.target: Beta-lactamase L1 (Stenotrophomonas maltophilia)
- measurement.notes: Inhibition of Stenotrophomonas maltophilia L1 metallo beta lactamase at 200 uM
The figure you give is taken to be in %; do not add the unit.

Sample records with inhibition:
>>> df
                                   compound                       experimental_target  value_measured
0  CC(C)C(=O)NC(CCS)C(=O)N[C@H](Cc1ccccc1)C(=O)O (some centres not stated)  Beta-lactamase L1 (Stenotrophomonas maltophilia)              41
1  CC(=O)Nc1cccc(C(=O)NC(CCS)C(=O)N[C@H](Cc2ccccc2)C(=O)O)c1 (some centres not stated)  Beta-lactamase L1 (Stenotrophomonas maltophilia)              61
2  O=C(Cc1c[nH]c2ccccc12)NC(CCS)C(=O)N[C@H](Cc1ccccc1)C(=O)O (some centres not stated)  Beta-lactamase L1 (Stenotrophomonas maltophilia)              61

Problem: Could you share what inhibition was measured for O=C(NC(CCS)C(=O)N[C@H](Cc1ccccc1)C(=O)O)c1cc2ccccc2[nH]1 (some centres not stated) , tested on Beta-lactamase L1 (Stenotrophomonas maltophilia)?
Result: 81

Problem: Could you share what inhibition was measured for O=C(O)c1cccc(C(=O)NC(CCS)C(=O)N[C@H](Cc2ccccc2)C(=O)O)n1 (stereo in doubt; 84) , tested on Beta-lactamase L1 (Stenotrophomonas maltophilia)?
Result: 81

Problem: Could you share what inhibition was measured for Cc1nocc1C(=O)NC(CCS)C(=O)N[C@H](Cc1ccccc1)C(=O)O (some centres not stated) , tested on Beta-lactamase L1 (Stenotrophomonas maltophilia)?
Result: 61

Problem: Could you share what inhibition was measured for O=C(NC(CCS)C(=O)N[C@H](Cc1ccccc1)C(=O)O)c1ccccc1O (some centres not stated) , tested on Beta-lactamase L1 (Stenotrophomonas maltophilia)?
Result: 41

Problem: Could you share what inhibition was measured for O=C(NC(CCS)C(=O)N[C@H](Cc1ccccc1)C(=O)O)C1CCC1 (some centres not stated) , tested on Beta-lactamase L1 (Stenotrophomonas maltophilia)?
Result: 0

Problem: Could you share what inhibition was measured for O=C(/C=C\c1ccco1)NC(CCS)C(=O)N[C@H](Cc1ccccc1)C(=O)O (some centres not stated) , tested on Beta-lactamase L1 (Stenotrophomonas maltophilia)?
Result: 21

Problem: Could you share what inhibition was measured for O=C(Cc1ccsc1)NC(CCS)C(=O)N[C@H](Cc1ccccc1)C(=O)O (some centres not stated) , tested on Beta-lactamase L1 (Stenotrophomonas maltophilia)?
Result: 41

Problem: Could you share what inhibition was measured for O=C(NC(CCS)C(=O)N[C@H](Cc1ccccc1)C(=O)O)C1CCCCC1 (some centres not stated) , tested on Beta-lactamase L1 (Stenotrophomonas maltophilia)?
Result: 61

Problem: Could you share what inhibition was measured for O=C(NC(CCS)C(=O)N[C@H](Cc1ccccc1)C(=O)O)c1cnccn1 (some centres not stated) , tested on Beta-lactamase L1 (Stenotrophomonas maltophilia)?
Result: 61

Problem: Could you share what inhibition was measured for O=C(NC(CCS)C(=O)N[C@H](Cc1ccccc1)C(=O)O)c1ccoc1 (some centres not stated) , tested on Beta-lactamase L1 (Stenotrophomonas maltophilia)?
Result: 41

Problem: Could you share what inhibition was measured for C/C=C\C=C\C(=O)NC(CCS)C(=O)N[C@H](Cc1ccccc1)C(=O)O (some centres not stated) , tested on Beta-lactamase L1 (Stenotrophomonas maltophilia)?
Result: 41

Problem: Could you share what inhibition was measured for O=C(CC(c1ccccc1)c1ccccc1)NC(CCS)C(=O)N[C@H](Cc1ccccc1)C(=O)O (some centres not stated) , tested on Beta-lactamase L1 (Stenotrophomonas maltophilia)?
Result: 41

Problem: Could you share what inhibition was measured for Cc1cc(C(=O)NC(CCS)C(=O)N[C@H](Cc2ccccc2)C(=O)O)cc(C)c1OCc1ccccc1 (some centres not stated) , tested on Beta-lactamase L1 (Stenotrophomonas maltophilia)?
Result: 81

Problem: Could you share what inhibition was measured for Cc1ccccc1C(=O)NC(CCS)C(=O)N[C@H](Cc1ccccc1)C(=O)O (some centres not stated) , tested on Beta-lactamase L1 (Stenotrophomonas maltophilia)?
Result: 61

---

- experimental.target: Beta-lactamase L1 (Stenotrophomonas maltophilia) (UniProt P52700)
- measurement.notes: Inhibition of Stenotrophomonas maltophilia L1 metallo beta lactamase at 200 uM
measurement.label: inhibition (%)
The figure you give is taken to be in %; do not add the unit.

In [3]: df
Out[3]:
                                   compound                       experimental_target  value_units  value_measured
0  CC(=O)CCC(=O)NC(CCS)C(=O)N[C@H](Cc1ccccc1)C(=O)O (stereo not given in full)  Beta-lactamase L1 (Stenotrophomonas maltophilia) (UniProt P52700)            %              41

Problem: Query (compound): O=C(NC(CCS)C(=O)N[C@H](Cc1ccccc1)C(=O)O)c1cc2cc(F)ccc2[nH]1 (stereo not given in full) ; field requested: inhibition
Result: 81

Problem: Query (compound): NC(=O)CCC(=O)NC(CCS)C(=O)N[C@H](Cc1ccccc1)C(=O)O (stereo not given in full) ; field requested: inhibition
Result: 41

Problem: Query (compound): O=C(N[C@H](Cc1ccccc1)C(=O)O)C(CCS)NC(=O)C12CC3CC(CC(C3)C1)C2 (stereo not given in full) ; field requested: inhibition
Result: 61

Problem: Query (compound): O=C(Cc1cccs1)NC(CCS)C(=O)N[C@H](Cc1ccccc1)C(=O)O (stereo not given in full) ; field requested: inhibition
Result: 41

Problem: Query (compound): Cc1ccsc1C(=O)NC(CCS)C(=O)N[C@H](Cc1ccccc1)C(=O)O (stereo not given in full) ; field requested: inhibition
Result: 61

Problem: Query (compound): O=C(O)CCCCC(=O)NC(CCS)C(=O)N[C@H](Cc1ccccc1)C(=O)O (stereo not given in full) ; field requested: inhibition
Result: 41

Problem: Query (compound): C=C(C)C(=O)NC(CCS)C(=O)N[C@H](Cc1ccccc1)C(=O)O (stereo not given in full) ; field requested: inhibition
Result: 61

Problem: Query (compound): Cn1cccc1C(=O)NC(CCS)C(=O)N[C@H](Cc1ccccc1)C(=O)O (stereo not given in full) ; field requested: inhibition
Result: 41

Problem: Query (compound): CO/N=C(/C(=O)NC(CCS)C(=O)N[C@H](Cc1ccccc1)C(=O)O)c1csc(NC=O)n1 (stereo not given in full) ; field requested: inhibition
Result: 41

---

The following molecules are shown together with reported inhibition values.
- experimental.target: Beta-lactamase L1 (Stenotrophomonas maltophilia) (UniProt P52700)
- measurement.notes: Inhibition of Stenotrophomonas maltophilia L1 metallo beta lactamase at 200 uM
The figure you give is taken to be in %; do not add the unit.

Sample records with inhibition:
In [3]: df
Out[3]:
                                   molecule  value_units  value_measured
0  CC(C)CC(=O)NC(CCS)C(=O)N[C@H](Cc1ccccc1)C(=O)O (stereo not given in full)            %              21
1  O=C(NC(CCS)C(=O)N[C@H](Cc1ccccc1)C(=O)O)c1cccs1 (stereo not given in full)            %              41
2  C=CCCC(=O)NC(CCS)C(=O)N[C@H](Cc1ccccc1)C(=O)O (stereo not given in full)            %              41
3  O=C(NC(CCS)C(=O)N[C@H](Cc1ccccc1)C(=O)O)c1ccsc1 (stereo not given in full)            %              41
4  Cc1ccc(C(=O)NC(CCS)C(=O)N[C@H](Cc2ccccc2)C(=O)O)s1 (stereo not given in full)            %              41
5  O=C(NC(CCS)C(=O)N[C@H](Cc1ccccc1)C(=O)O)c1cnc(O)c(Cl)c1 (stereo not given in full)            %              81

Problem: Query (molecule): O=C(NC(CCS)C(=O)N[C@H](Cc1ccccc1)C(=O)O)c1cc2cc(O)ccc2[nH]1 (stereo not given in full) ; field requested: inhibition
Result: 81

Problem: Query (molecule): C=Cc1ccc(C(=O)NC(CCS)C(=O)N[C@H](Cc2ccccc2)C(=O)O)cc1 (stereo not given in full) ; field requested: inhibition
Result: 61

Problem: Query (molecule): CCCCCCCC(=O)NC(CCS)C(=O)N[C@H](Cc1ccccc1)C(=O)O (stereo not given in full) ; field requested: inhibition
Result: 41

Problem: Query (molecule): O=C(O)c1ccc(C(=O)NC(CCS)C(=O)N[C@H](Cc2ccccc2)C(=O)O)cc1 (stereo not given in full) ; field requested: inhibition
Result: 61
